# Tested on: T1, hCD47-ECD/Fc protein (Sinobiological) (human, UniProt Q08722 19-139, biotinylated in the Octet assay, sites not stated)
# T1 construct: extracellular domain; Bought protein; also called human CD47-Fc antigen; recombinant hCD47-ECD/Fc; not shown: Fc part of the bought fusion protein
# T1 sequence (Q08722 19-139 limits assumed): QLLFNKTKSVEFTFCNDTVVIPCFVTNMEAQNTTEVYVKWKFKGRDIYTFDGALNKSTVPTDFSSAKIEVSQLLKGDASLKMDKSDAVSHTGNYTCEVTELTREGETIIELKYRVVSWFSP
# Assay name: BLI (Octet RED96), biotin-hCD47-ECD/Fc on SA sensors, 1:1 model;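 note: test antibodies as analytes, 300 s association then 300 s dissociation in running buffer, with benchmark reference antibodies run as controls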
Readout name: Kd (nM)
Unit nM implied. Number only.

Sample records with Kd:
TY25040 (antibody, V domains shown) VH: QVQLVQSGAEVKKPGSSVKVSCKASGFTFSDYGIHWVRQAPGQGLEWIGRIYPSGGSTNYAQKFQGRVTITADKSTSTAYMELSSLRSEDTAVYYCARQRGYGRFAYWGQGTLVTVSS VL: DIQLTQSPSSLSASVGDRVTITCSASSSVGYVYWYQQKPGKAPKLLIYDASSLESGVPSRFSGSGSGTDFTLTISSLQPEDFATYFCQQYTYAPFTFGQGTKVEIKR
0.474
TY25038 (antibody, V domains shown) VH: QVQLVQSGAEVKKPGSSVKVSCKASGFTFSRYAIHWVRQAPGQGLEWLGGIIPVFGTANYAQKFQGRVTITADKSTSTAYMELSSLRSEDTAVYYCARQGILGGFAYWGQGTLVTVSS VL: DIQLTQSPSSLSASVGDRVTITCRASESVDFHGKSFLAWYQQKPGKAPKLLIYAASSLQSGVPSRFSGSGSGTDFTLTISSLQPEDFATYYCQQYLELPFTFGQGTKVEIKR
4.47
TY25037 (antibody, V domains shown) VH: QVQLVQSGAEVKKPGSSVKVSCKASGYSITSGHYWTWIRQAPGQGLEWIGGIIPVFGTPNYAQKFQGRVTITADKSTSTAYMELSSLRSEDTAVYYCASYGYGGAYFDVWGQGTLVTVSS VL: DIQLTQSPSSLSASVGDRVTITCRASQSVDFHGISFLHWYQQKPGKAPKLLIYDASNRATGIPSRFSGSGSGTDFTLTISSLQPEDFATYYCVQGIQWPWTFGQGTKVEIKR
0.611

Please look at the following binder next.
Q) Bench note: what Kd did TY25039 (antibody, V domains shown) VH: QVQPAQSGAEVKKPGSSVKVSCKASGYSISSGYYWGWIRQAPGQGLEWIGAISYSGSTYYSPSLKSRVTITADKSTSTAYMELSSLRSEDTAVYYCARHYLFAGSTSYDAFDIWGQGTLVTVSS VL: DIQLTQSPSSLSASVGDRVTITCRASQSVDFYGFSFLAWYQQKPGKAPKLLIYDASNRATGIPSRFSGSGSGTDFTLTISSLQPEDFATYYCQQSYRTPLTFGQGTKVEIKR show?
A) 0.141
